# experimental target: T1, mfNPR1-mFc:hANP complex (monkey; human, UniProt P01160 124-151)
# T1 construct: also called monkey NPR1 complexed to ANP
# test name: SPR, mAb captured, 25C
Measured 100 nM Ag Bound (RU) by item
The reply should be a number in RU, with the unit left off.

Input line: // lookup 100 nM Ag Bound (RU) for mAb22805 (antibody, human IgG4, V domains shown) VH: QVQLVESGGGVVQPGRSLRLSCAASGFTFSTYGMHWVRQAPGKGLEWVALIWNDGSNKYYADSVKGRFTISRDNSKNTLDLQMNSLRAEDTAVYYCARLNTRITGTTNLDYWGQGTLVTVSS VL: DIQMTQSPSSLSASVGDRVTVSCRASQSIANYLNWYQQKPGKAPNLLIYGAYTLQSGVPSRFRGSGSGTDFTLTISSLQPEDFATYYCQQTYSTPPITFGQGTRLEIK
Output line: 116

Hey, just so you know, these numbers are from patent US20240309103A1.
